Sourced from patent US20060063782A1

A collection of molecules and their measured pIC50
Target: p38 MAP kinase (Homo sapiens, UniProt Q16539)
Sequence (Q16539 whole entry): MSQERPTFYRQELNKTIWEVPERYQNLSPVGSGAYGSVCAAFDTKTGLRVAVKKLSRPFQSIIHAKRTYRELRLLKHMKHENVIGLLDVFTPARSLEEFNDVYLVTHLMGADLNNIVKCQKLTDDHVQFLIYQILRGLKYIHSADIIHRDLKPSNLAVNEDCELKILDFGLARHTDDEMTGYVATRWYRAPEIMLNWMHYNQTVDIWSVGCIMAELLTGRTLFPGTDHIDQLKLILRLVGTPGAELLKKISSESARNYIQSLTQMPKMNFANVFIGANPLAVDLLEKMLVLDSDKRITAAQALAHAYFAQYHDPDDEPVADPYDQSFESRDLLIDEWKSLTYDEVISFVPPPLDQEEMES
Test: p38 MAP Kinase Assay (33P incorporation into myelin basic protein, filter plate)
Assay type: biochemical
Details: Table 2; MKK6-activated p38, MBP substrate, 50 minutes
Procedure: The activated p38 is then diluted 1:6 with assay buffer, and 20 μl mixed with 25 μl of MBP mix (300 μl 10×strength assay buffer, 300 μl of 10 mM DTT & 10 mM sodium orthovanadate, 1.7 ml H2O, 50 μCi γ^33P-ATP, 200 μl of myelin basic protein (MBP) (5 mg/ml)) and added to 96 well plates along with 5 μl of various dilutions of the test compound in DMSO (up to 10%). The reaction is allowed to proceed for 50 minutes before being stopped with an excess of ortho-phosphoric acid (30 μl at 2%). […]
pIC50: −log10 of the molar value.

Exercise: Recorded pIC50 for O=C(Nc1ccc(F)c(COc2cnccn2)c1)c1cccc(S(=O)(=O)N2CCOCC2)c1 [Compound 98] , please?
Solution: > 5.70

----------
A collection of compounds and their measured pIC50
molecular target: p38 MAP kinase (Homo sapiens); experiment: p38 MAP Kinase Assay (33P incorporation into myelin basic protein, filter plate); format: biochemical; conditions: Table 2; MKK6-activated p38, MBP substrate, 50 minutes
pIC50: −log10 of the molar value.

Exercise: Lookup: pIC50 / p38 MAP kinase (Homo sapiens) / Nc1ccc(Cl)c(COc2cnccn2)c1
Solution: > 3.00

Exercise: Lookup: pIC50 / p38 MAP kinase (Homo sapiens) / C[S+]([O-])c1nnc(NC(=O)Nc2ccc(F)c(COc3cnccn3)c2)s1 (stereo not drawn)
Solution: > 3.00

Exercise: Lookup: pIC50 / p38 MAP kinase (Homo sapiens) / O=C(Nc1ccc(F)c(COc2cnccn2)c1)Nc1nnc(CC2CC2)s1
Solution: > 5.70

***
Exercise: Lookup: pIC50 / p38 MAP kinase (Homo sapiens) / O=C(Nc1ccc(F)c(COc2cnccn2)c1)Nc1n[nH]cc1-c1ccccc1
Solution: > 4.70

Exercise: Lookup: pIC50 / p38 MAP kinase (Homo sapiens) / CNc1cnc(OCc2c(Cl)cccc2Cl)cn1
Solution: > 3.70

Exercise: Lookup: pIC50 / p38 MAP kinase (Homo sapiens) / O=C(NCCO)c1cnc(OCc2c(Cl)cccc2Cl)cn1
Solution: > 3.00

----------
target: p38 MAP kinase (Homo sapiens, UniProt Q16539); assay: p38 MAP Kinase Assay (33P incorporation into myelin basic protein, filter plate); assay type: biochemical; settings: Table 2; MKK6-activated p38, MBP substrate, 50 minutes
Readout label: IC50

Examples from the recorded data:
Exercise: Recorded IC50 for O=C(Nc1ccc(F)c(COc2cnccn2)c1)Nc1cc(-c2ccc(Cl)cc2)nn1-c1ccccc1 , please?
Solution: < 2 µM

Exercise: Recorded IC50 for c1cc(COc2cnccn2)cc(Nc2nc3ccccc3o2)c1 , please?
Solution: < 200 µM

***
Exercise: Recorded IC50 for CC(C)(C)c1cc(NC(=O)Nc2ccc(F)c(COc3cnccn3)c2)n(-c2ccccc2)n1 , please?
Solution: < 2 µM

Exercise: Recorded IC50 for c1ccc(CNc2cccc(COc3cnccn3)c2)cc1 , please?
Solution: < 1000 µM

Exercise: Recorded IC50 for O=C(Nc1cnc(OCc2c(Cl)cccc2Cl)cn1)N1CCOCC1 , please?
Solution: < 2 µM

Exercise: Recorded IC50 for CC(C)(C)c1cc(NC(=O)Nc2ccc(F)c(COc3cnccn3)c2)n(-c2ccncc2)n1 , please?
Solution: < 2 µM

Exercise: Recorded IC50 for O=C(Nc1ccc(F)c(COc2cnccn2)c1)Nc1cc(-c2ccccc2)[nH]n1 , please?
Solution: < 2 µM

Exercise: Recorded IC50 for O=C(Nc1ccc(F)c(COc2cnccn2)c1)Nc1nnc(C2CCCO2)s1 (stereo not drawn) [Compound 120] , please?
Solution: < 2 µM

Exercise: Recorded IC50 for O=C(Nc1ccc(F)c(COc2cnccn2)c1)Nc1cc(C2CCCO2)nn1-c1ccc(F)cc1 (stereo not drawn) , please?
Solution: < 2 µM

----------
Target: UniProtKB Q16539
Assay: p38 MAP Kinase Assay (33P incorporation into myelin basic protein, filter plate)
Assay type: biochemical
Conditions: Table 1; MKK6-activated p38, MBP substrate, 50 minutes
Description: The activated p38 is then diluted 1:6 with assay buffer, and 20 μl mixed with 25 μl of MBP mix (300 μl 10×strength assay buffer, 300 μl of 10 mM DTT & 10 mM sodium orthovanadate, 1.7 ml H2O, 50 μCi γ^33P-ATP, 200 μl of myelin basic protein (MBP) (5 mg/ml)) and added to 96 well plates along with 5 μl of various dilutions of the test compound in DMSO (up to 10%). The reaction is allowed to proceed for 50 minutes before being stopped with an excess of ortho-phosphoric acid (30 μl at 2%). […]
pIC50: −log10 of the molar value.
Readout label: pIC50

Examples from the recorded data:
Exercise: Recorded pIC50 for O=C(Nc1ccc(Cl)c(COc2cccnc2)c1)c1ccccc1 , please?
Solution: > 4.70

Exercise: Recorded pIC50 for O=C(Nc1ccc(Cl)c(COc2cccnc2)c1)c1ccncc1 , please?
Solution: > 3.70

Exercise: Recorded pIC50 for Nc1ncccc1OCc1cccc(OC(F)(F)F)c1 , please?
Solution: > 2.00

Exercise: Recorded pIC50 for O=C(Nc1ccc(Cl)c(COc2cccnc2)c1)c1cccc(C(F)(F)F)c1 , please?
Solution: > 4.70

Exercise: Recorded pIC50 for O=C(Nc1ccc(F)c(COc2cccnc2)c1)c1cccc(F)c1 , please?
Solution: > 3.70

***
Exercise: Recorded pIC50 for O=C1c2ccccc2C(=O)N1c1ccc(Cl)c(COc2cccnc2)c1 , please?
Solution: > 3.00

Exercise: Recorded pIC50 for Nc1ncccc1OCc1csc2ccccc12 , please?
Solution: > 3.00

Exercise: Recorded pIC50 for O=C1c2ccccc2C(O)N1c1ccc(Cl)c(COc2cccnc2)c1 (stereo not shown) , please?
Solution: > 3.70

Exercise: Recorded pIC50 for O=C(Nc1ccc(Cl)c(COc2cccnc2)c1)Oc1ccccc1 , please?
Solution: > 4.70

Exercise: Recorded pIC50 for CC(C)c1nnc(NC(=O)Nc2ccc(F)c(COc3cccnc3)c2)s1 , please?
Solution: > 4.70

Exercise: Recorded pIC50 for O=C(Nc1ccc(Cl)c(COc2cccnc2)c1)c1cccc(F)c1 , please?
Solution: > 3.70

Exercise: Recorded pIC50 for O=C(Nc1ccc(Cl)c(COc2ccc(NCc3ccccc3)nc2)c1)c1cc(F)cc(N2CCOCC2)c1 , please?
Solution: > 5.70

----------
biological target: p38 MAP kinase (Homo sapiens, UniProt Q16539); assay: p38 MAP Kinase Assay (33P incorporation into myelin basic protein, filter plate); type: biochemical; conditions: Table 2; MKK6-activated p38, MBP substrate, 50 minutes
pIC50: −log10 of the molar value.
A collection of compounds and their measured pIC50

Examples from the recorded data:
Exercise: Recorded pIC50 for O=C(Nc1ccc(F)c(COc2cnccn2)c1)c1cccc(Oc2ccccc2)c1 [Compound 102] , please?
Solution: > 5.70

Exercise: Recorded pIC50 for CN1CCCC(CNC(=O)c2cnc(OCc3c(Cl)cccc3Cl)cn2)C1 (stereo not shown) [Compound 162] , please?
Solution: > 3.00

Exercise: Recorded pIC50 for CC(C)(C)c1cc(NC(=O)Nc2ccc(Cl)c(COc3cnccn3)c2)[nH]n1 [Compound 95] , please?
Solution: > 4.70

// switching to the query compound
Exercise: Recorded pIC50 for O=C(CN1CCCCC1)Nc1cnc(OCc2c(Cl)cccc2Cl)cn1 [Compound 172] , please?
Solution: > 3.70

----------
biological target: UniProtKB Q16539; assay: p38 MAP Kinase Assay (33P incorporation into myelin basic protein, filter plate); format: biochemical; conditions: Table 2; MKK6-activated p38, MBP substrate, 50 minutes
Readout label: IC50

Exercise: Lookup: IC50 / UniProtKB Q16539 / Cc1ccc(-n2nc(C(C)(C)C)cc2NC(=O)Nc2ccc(F)c(COc3cnccn3)c2)cc1 [Compound 130]
Solution: < 2 µM

Exercise: Lookup: IC50 / UniProtKB Q16539 / CC(C)(C)c1ccc(C(=O)Nc2ccc(F)c(COc3cnccn3)c2)cc1 [Compound 101]
Solution: < 20 µM

Exercise: Lookup: IC50 / UniProtKB Q16539 / CC(C)(C)c1cc(C(=O)Nc2ccc(F)c(COc3cnccn3)c2)n(Cc2ccccc2)n1 [Compound 135]
Solution: < 20 µM

// switching to the query compound
Exercise: Lookup: IC50 / UniProtKB Q16539 / CC(C)(Cc1ccncc1)NC(=O)c1cnc(OCc2c(Cl)cccc2Cl)cn1 [Compound 139]
Solution: < 20 µM

----------
target: p38 MAP kinase (Homo sapiens); assay: p38 MAP Kinase Assay (33P incorporation into myelin basic protein, filter plate); assay type: biochemical; conditions: Table 2; MKK6-activated p38, MBP substrate, 50 minutes
A collection of compounds and their measured IC50

Exercise: Recorded IC50 for CN1CCC(CC(=O)Nc2cnc(OCc3c(Cl)cccc3Cl)cn2)CC1 , please?
Solution: < 200 µM

Exercise: Recorded IC50 for O=C(Nc1ccc(Cl)c(COc2cnccn2)c1)c1cc(F)cc(N2CCOCC2)c1 , please?
Solution: < 2 µM

Exercise: Recorded IC50 for Cc1cc(C)c2nc(NC(=O)Nc3ccc(F)c(COc4cnccn4)c3)sc2c1 , please?
Solution: < 1000 µM

Exercise: Recorded IC50 for Cc1nc(-c2cc(C(=O)Nc3ccc(F)c(COc4cnccn4)c3)no2)cs1 , please?
Solution: < 200 µM

Exercise: Recorded IC50 for CC(C)(C)c1ccc2[nH]cc(CC(=O)Nc3ccc(F)c(COc4cnccn4)c3)c2c1 , please?
Solution: < 200 µM

***
Exercise: Recorded IC50 for O=C(Nc1ccc(F)c(COc2cnccn2)c1)c1ccc(-c2ccccc2)cc1 , please?
Solution: < 200 µM

Exercise: Recorded IC50 for CC(Nc1cnc(OCc2c(Cl)cccc2Cl)cn1)c1ccccc1 (centres unmarked) , please?
Solution: < 20 µM

Exercise: Recorded IC50 for Nc1cnc(OCc2ccccc2)cn1 , please?
Solution: < 1000 µM
